Target: human TLR7 (Homo sapiens)
Sequence (Q9NYK1 27-1049): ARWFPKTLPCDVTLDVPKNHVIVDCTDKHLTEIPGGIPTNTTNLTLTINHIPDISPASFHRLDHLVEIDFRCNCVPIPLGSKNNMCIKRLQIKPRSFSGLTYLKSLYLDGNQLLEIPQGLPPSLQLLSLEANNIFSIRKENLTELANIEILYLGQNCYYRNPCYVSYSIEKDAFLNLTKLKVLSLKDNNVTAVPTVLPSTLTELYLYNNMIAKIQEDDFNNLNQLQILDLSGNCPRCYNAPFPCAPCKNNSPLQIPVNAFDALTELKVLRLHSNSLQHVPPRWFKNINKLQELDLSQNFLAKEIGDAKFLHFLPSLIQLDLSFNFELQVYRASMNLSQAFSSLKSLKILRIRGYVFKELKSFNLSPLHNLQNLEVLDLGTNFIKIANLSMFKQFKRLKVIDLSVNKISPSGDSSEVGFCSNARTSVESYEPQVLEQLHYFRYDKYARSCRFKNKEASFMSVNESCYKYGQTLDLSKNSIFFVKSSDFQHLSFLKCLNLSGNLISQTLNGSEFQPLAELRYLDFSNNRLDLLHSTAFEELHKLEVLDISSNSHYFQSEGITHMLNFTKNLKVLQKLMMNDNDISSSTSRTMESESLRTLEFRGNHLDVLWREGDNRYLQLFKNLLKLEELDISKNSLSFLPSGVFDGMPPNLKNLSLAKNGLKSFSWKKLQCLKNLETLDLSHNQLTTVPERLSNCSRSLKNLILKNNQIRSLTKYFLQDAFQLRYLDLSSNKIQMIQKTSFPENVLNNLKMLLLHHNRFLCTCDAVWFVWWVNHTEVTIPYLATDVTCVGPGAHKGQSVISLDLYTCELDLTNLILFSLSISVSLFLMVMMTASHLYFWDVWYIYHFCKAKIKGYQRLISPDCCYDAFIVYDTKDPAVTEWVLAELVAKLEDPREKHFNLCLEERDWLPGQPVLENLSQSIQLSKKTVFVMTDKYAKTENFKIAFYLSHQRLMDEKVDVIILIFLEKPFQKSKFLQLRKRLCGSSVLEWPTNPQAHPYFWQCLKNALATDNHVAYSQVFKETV
Experiment: TLR7 inhibition reporter assay (HEK-Blue cells, secreted embryonic alkaline phosphatase reporter)
Settings: HEK-Blue cells overexpressing human TLR7, stimulated with gardiquimod 7.5 μM; read-out: TLR 7 IC50
pIC50: −log10 of the molar value.
Readings of pIC50 for the listed compounds

Cn1c(-c2ccc(S(C)(=O)=O)cc2)nc2c(F)c(C3CCN(C4CC5CCC(C4)N5C4COC4)CC3)ccc21 (stereo not shown) [Example 195]: < 4.30

Problem: Consider the compound COc1ccc(-c2nc3c(C)cc(C4CCN(C5CC6CCC(C5)N6C5COC5)CC4)cc3n2C)cc1OC (single isomer, unassigned) [Example 165] and give its measured pIC50.
Result: < 4.60

Problem: Data request, read-out pIC50, for CC(C)N1CCC(N2CCC(c3ccc4c(nc(-c5ccc(S(C)(=O)=O)cc5)n4C)c3F)CC2)CC1 [Example 88]
Result: < 4.30

Problem: pIC50 lookup needed for Cn1c(-c2ccc(S(C)(=O)=O)cc2)nc2cc(C3CCN(C4CC5CCC(C4)N5C4CCOCC4)CC3)cc(F)c21 (stereo not shown) [Example 212] , thanks.
Result: < 4.30

###

Target: human TLR9 (Homo sapiens)
Construct: host or cells: HEK-Blue cells (HEK293-derived reporter line)
Sequence (Q9NR96 26-1032): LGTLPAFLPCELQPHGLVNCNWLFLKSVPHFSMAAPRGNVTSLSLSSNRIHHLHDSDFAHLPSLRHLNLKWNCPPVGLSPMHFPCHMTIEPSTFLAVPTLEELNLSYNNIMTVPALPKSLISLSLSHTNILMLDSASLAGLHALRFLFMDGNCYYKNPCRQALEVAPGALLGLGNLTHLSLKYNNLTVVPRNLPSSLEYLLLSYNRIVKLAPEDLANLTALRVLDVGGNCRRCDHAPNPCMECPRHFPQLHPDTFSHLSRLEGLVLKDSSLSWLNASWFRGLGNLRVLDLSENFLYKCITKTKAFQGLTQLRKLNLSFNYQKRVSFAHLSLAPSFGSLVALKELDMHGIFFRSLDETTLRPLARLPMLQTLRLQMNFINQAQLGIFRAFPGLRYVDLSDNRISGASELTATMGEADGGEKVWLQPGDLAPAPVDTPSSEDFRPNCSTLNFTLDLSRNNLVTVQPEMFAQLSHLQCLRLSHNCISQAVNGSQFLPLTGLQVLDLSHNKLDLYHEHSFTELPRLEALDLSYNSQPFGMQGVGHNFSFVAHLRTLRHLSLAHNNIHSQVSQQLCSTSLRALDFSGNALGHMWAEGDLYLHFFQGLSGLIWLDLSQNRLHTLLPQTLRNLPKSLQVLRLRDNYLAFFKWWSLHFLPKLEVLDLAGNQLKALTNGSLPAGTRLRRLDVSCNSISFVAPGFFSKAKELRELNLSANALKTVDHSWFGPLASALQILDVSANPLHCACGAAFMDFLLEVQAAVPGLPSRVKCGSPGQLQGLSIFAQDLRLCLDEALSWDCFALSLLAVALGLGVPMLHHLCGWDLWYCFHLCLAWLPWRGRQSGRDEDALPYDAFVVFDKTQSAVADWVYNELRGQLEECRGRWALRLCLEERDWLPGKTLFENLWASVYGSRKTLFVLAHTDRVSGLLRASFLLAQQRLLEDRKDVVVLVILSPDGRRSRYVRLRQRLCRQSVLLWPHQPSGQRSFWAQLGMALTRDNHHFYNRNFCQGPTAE
Test: TLR9 inhibition reporter assay (HEK-Blue cells, secreted embryonic alkaline phosphatase reporter)
Format: cell-based
Settings: HEK-Blue cells overexpressing human TLR9, stimulated with ODN2006 5 nM; read-out: TLR 9 IC50
// IC50 lookup, one value per entry
Please give a number only; it is taken to be in nM.

Recorded IC50, per entry:
COc1ccc(-c2nc3c(C)cc(C4CCN(C5CCN(C6CC6)CC5)CC4)cc3[nH]2)cc1OC: 52
Cc1cc(C2CCN(C3CC4CCC(C3)N4CC3CC3)CC2)cc2[nH]c(-c3ccc(S(C)(=O)=O)cc3)nc12 (stereo not shown) [Example 336]: 77
Cn1c(-c2ccc(S(C)(=O)=O)cc2)nc2ccc(C3CCN(C4CCN(C5CCC5)CC4)CC3)c(F)c21: 171

Problem: What value of measured IC50 is listed for `Cc1cc(C2CCN(C3CCN(C(C)C)CC3)CC2)cc2c1nc(-c1ccc(S(C)(=O)=O)c(F)c1)n2C` ?
Result: 139

Problem: Look at this molecule and give its reported IC50. `Cc1cc(-c2ccc(CN3CC4(C3)CN(C(C)C)C4)c(F)c2)cc2c1nc(-c1ccc(S(C)(=O)=O)cc1)n2C`
Result: 69

Problem: Consider the molecule shown here: CS(=O)(=O)c1ccc(-c2nc3c(F)cc(C4CCN(C5CC6CCC(C5)N6CC5CC5)CC4)cc3n2C2CC2)cc1 (single isomer, unassigned) [Example 325] What is its recorded IC50?
Result: 15

Problem: IC50 for COCCN1C2CCC1CC(N1CCC(c3cc(C)c4nc(-c5ccc(OC)c(OC)c5)n(C)c4c3)CC1)C2 (single isomer, unassigned) [Example 169] ?
Result: 204
